The measured values listed here are drawn from ChEMBL document CHEMBL1201862.

- SYSTEM TESTED: UniProtKB P05187
- Sequence (P05187 whole entry): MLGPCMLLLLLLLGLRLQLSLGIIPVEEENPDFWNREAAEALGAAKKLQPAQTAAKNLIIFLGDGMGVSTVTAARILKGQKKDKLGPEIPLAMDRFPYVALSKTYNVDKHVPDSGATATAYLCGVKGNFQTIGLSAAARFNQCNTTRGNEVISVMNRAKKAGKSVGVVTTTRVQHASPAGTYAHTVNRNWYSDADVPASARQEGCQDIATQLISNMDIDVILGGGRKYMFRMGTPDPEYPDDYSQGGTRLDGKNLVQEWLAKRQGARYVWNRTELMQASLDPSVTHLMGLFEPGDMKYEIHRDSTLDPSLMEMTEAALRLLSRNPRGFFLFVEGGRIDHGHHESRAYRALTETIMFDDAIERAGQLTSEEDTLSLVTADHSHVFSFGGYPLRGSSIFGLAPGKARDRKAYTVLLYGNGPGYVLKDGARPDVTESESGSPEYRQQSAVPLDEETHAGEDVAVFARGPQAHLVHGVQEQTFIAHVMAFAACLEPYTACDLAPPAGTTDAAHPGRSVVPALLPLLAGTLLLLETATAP
- EXPERIMENT NOTES: human placental alkaline phosphatase inhibition – biochemical, luminescence, confirmation (AID 1512)
- Format: functional
Activity calls are given as the source filed them.
Outcomes you can answer with include only these: 1.0 (active), 0.0 (inactive)

Example results:
| COMPOUND | QUALITATIVE LABEL |
| --- | --- |
| O=C(CSc1nc2ccccc2s1)c1ccc(O)c(O)c1 | 1.0 |
| Cc1cccc(C)c1OCc1nnc2c3cnn(-c4ccccc4)c3ncn12 | 0.0 |
| CCCCN(C)C(=O)NC1(C(F)(F)F)Oc2ccccc2O1 | 0.0 |
| O=C(NC1(C(F)(F)F)Oc2ccc(Cl)cc2O1)N1CCC2(CC1)OCCO2 (stereo not given) | 1.0 |

Note: attention shifts to another entry.
INPUT: Outcome logged for O=C(NCCO)c1cc(-c2cc(F)c(Cl)cc2Cl)n[nH]1 in this assay:
OUTPUT: 0.0

* * *

- SYSTEM TESTED: Fatty acid synthase (Homo sapiens, UniProt P49327)
- Sequence (P49327 whole entry): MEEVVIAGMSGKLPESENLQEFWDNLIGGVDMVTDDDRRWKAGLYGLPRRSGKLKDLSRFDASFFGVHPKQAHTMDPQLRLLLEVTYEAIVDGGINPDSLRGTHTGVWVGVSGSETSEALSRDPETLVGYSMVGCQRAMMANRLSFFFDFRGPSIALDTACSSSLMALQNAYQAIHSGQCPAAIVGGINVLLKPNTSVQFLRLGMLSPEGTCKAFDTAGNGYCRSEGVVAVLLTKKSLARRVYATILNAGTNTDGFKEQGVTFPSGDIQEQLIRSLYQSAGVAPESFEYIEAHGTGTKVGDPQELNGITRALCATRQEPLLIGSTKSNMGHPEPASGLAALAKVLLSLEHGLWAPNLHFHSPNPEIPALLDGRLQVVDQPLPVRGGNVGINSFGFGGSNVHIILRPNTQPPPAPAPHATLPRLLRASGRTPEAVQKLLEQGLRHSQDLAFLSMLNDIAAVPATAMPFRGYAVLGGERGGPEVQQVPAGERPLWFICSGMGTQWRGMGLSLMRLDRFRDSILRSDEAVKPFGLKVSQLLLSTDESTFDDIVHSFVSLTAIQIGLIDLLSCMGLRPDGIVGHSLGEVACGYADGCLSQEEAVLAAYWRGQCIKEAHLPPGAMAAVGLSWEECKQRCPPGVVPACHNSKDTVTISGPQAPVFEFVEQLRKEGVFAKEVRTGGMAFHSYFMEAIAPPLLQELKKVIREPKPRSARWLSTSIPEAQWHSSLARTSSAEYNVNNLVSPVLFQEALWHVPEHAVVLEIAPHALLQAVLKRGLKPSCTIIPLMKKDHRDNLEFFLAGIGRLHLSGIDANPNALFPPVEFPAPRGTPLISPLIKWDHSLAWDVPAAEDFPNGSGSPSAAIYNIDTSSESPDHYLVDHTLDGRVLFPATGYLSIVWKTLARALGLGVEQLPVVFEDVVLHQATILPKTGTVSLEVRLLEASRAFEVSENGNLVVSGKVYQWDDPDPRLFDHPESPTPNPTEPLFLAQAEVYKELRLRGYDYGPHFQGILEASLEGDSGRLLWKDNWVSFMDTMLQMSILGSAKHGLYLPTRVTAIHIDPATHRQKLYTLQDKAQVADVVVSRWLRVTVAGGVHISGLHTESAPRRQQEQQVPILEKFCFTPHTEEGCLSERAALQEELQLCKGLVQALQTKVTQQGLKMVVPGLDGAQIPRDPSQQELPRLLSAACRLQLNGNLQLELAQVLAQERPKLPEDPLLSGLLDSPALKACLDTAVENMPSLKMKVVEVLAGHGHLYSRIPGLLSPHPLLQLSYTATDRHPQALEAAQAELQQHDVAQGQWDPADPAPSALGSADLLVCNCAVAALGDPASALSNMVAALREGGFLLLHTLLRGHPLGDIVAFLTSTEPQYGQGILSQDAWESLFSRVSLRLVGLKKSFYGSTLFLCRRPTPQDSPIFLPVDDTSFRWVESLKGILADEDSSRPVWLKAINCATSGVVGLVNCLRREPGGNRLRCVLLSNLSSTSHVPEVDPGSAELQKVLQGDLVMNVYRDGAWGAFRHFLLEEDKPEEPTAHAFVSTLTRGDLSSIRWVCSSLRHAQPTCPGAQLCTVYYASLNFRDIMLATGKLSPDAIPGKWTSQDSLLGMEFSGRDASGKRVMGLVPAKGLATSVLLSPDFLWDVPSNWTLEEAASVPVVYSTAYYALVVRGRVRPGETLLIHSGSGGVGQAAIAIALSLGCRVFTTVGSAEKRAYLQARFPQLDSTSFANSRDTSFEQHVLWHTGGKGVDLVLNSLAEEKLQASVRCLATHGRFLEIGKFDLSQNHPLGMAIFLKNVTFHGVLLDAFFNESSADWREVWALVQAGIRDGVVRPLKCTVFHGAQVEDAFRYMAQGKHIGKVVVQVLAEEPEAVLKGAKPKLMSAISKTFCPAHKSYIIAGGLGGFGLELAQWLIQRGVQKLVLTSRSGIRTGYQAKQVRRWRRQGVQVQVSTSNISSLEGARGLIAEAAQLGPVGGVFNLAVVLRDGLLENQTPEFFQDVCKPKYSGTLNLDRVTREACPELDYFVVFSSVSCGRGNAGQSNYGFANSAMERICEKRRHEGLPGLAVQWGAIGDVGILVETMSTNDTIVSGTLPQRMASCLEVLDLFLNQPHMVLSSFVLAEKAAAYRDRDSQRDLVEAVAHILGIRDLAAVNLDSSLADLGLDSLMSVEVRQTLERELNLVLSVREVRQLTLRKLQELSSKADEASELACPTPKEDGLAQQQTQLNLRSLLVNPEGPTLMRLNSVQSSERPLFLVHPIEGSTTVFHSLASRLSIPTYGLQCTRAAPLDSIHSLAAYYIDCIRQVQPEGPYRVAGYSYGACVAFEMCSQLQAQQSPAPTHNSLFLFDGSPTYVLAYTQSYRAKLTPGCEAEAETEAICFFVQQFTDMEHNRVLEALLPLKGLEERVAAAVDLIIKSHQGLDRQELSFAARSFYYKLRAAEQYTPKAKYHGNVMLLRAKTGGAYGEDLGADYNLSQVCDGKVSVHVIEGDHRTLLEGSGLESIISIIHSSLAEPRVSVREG
- EXPERIMENT NOTES: inhibition of human FAS-TE enzyme activity – biochemical, kinetic fluorescence intensity, dose response (AID 624326);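 note: rate of fluorescence rise from hydrolysis of a fluorogenic O-methyl fluorescein ester substrate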
- Format: functional
Calls of active or inactive are those of the source.
Entry note: the call must match one of 1 for active, -1 for inactive

Consider the following illustrative entries.
| COMPOUND | QUALITATIVE LABEL |
| --- | --- |
| C=CCOc1c(OC)cc(/C=N/Nc2cccc(C(=O)O)c2)c(Br)c1Br | 1 |
| O=C(Oc1cccc(N2C(=O)C3C4c5ccccc5C(c5ccccc54)C3C2=O)c1)c1ccco1 (stereo not given) | -1 |
| Cc1c(Cl)c(=O)oc2cc(OCC(=O)N3CCCC(C)C3)ccc12 (stereo not given) | 1 |
| CC(C)(C)c1ccc(OC(=O)Nc2ccc(O)c(C(=O)O)c2)cc1 | 1 |

INPUT: Each compound tested received a call. Report the one for CC(C)(C)c1ccc(OCCC(=O)OCC(=O)NC2CCCCC2)cc1 .
OUTPUT: 1

* * *

- SYSTEM TESTED: Prothrombin (Homo sapiens)
- EXPERIMENT NOTES: Thrombin 1536 HTS Dose Response Confirmation. [Related pubchem assays: 1046 (Thrombin 1536 HTS; hits were confirmed in this assay)]
- Type: functional
Active and inactive are the calls of the source.
Reported values of IC50 for individual entries

Below: 3 molecules and their reported IC50.
| CPD SMILES | IC50 |
| --- | --- |
| Cc1cccc(Nc2nc(N)nc(CCl)n2)c1 | > 50 µM (not active) |
| N#Cc1ccccc1NC(=O)COC(=O)COc1ccccc1[N+](=O)[O-] | 9.18 µM (active) |
| Cc1nc(NCCc2ccccc2F)c(C#N)c(C)c1[N+](=O)[O-] | > 50 µM (not active) |

INPUT: Value lookup for IC50; key = NC(=O)/C(=N\OC(=O)c1ccco1)c1nc(-c2ccc(Br)cc2)cs1
OUTPUT: 0.925 µM (active)

INPUT: Now consider O=C(c1cccs1)n1nc(-c2ccco2)nc1SCc1ccccc1 and answer again.
OUTPUT: 1.48 µM (active)

* * *

Reported values of EC50 for individual entries
- SYSTEM TESTED: Zinc finger protein mex-5 (Caenorhabditis elegans)
- EXPERIMENT NOTES: potency of MEX-5 RNA-binding blockers – biochemical, C. elegans, fluorescence polarization, dose response (AID 1960)
The source made the active and inactive calls.

| CPD SMILES | EC50 |
| --- | --- |
| COc1ccc(Nc2nc(-c3cccnc3)nc3ccccc23)cn1 | 8.22 µM (active) |
| O=c1[nH]c(CSc2ncccn2)nc2c1cnn2-c1ccccc1 | > 300 µM (not active) |
| COc1ccc(N2C(=O)NC(=O)/C(=C\c3c[nH]c4ccc(Br)cc34)C2=O)c(OC)c1 | > 300 µM (inconclusive) |
| Nc1cccc2c1C(=O)N(Cc1nnc(-c3ccccc3Br)o1)C2=O | 29.4 µM (active) |
| Cc1cc(C=C2C(=O)c3ccccc3C2=O)c(C)n1-c1ccc(C(=O)O)cc1 | > 300 µM (not active) |

Here is the next item to consider.
INPUT: Request the reported EC50 associated with CCOc1ccccc1N1CCN(C(=O)CNC(=O)c2ccccc2F)CC1
OUTPUT: > 300 µM (not active)

* * *

- SYSTEM TESTED: UniProt:P08684
- Sequence (P08684 whole entry): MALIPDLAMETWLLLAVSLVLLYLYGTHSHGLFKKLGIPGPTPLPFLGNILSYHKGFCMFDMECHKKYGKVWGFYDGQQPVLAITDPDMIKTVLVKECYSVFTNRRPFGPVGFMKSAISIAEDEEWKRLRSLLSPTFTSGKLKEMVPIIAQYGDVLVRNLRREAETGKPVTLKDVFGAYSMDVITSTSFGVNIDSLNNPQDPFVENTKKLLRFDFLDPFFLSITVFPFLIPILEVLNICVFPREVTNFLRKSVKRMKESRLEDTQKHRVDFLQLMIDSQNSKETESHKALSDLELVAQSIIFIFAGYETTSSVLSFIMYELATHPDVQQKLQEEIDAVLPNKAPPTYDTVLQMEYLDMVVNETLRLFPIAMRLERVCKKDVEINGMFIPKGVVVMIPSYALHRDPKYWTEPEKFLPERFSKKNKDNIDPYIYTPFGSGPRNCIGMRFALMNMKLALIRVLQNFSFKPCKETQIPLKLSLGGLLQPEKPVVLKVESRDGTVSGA
- DETAILS: Potency
# AC50 per entry

| COMPOUND | SYSTEM TESTED | AC50 |
| --- | --- | --- |
| O=c1c(O)c(-c2ccc(O)c(O)c2)oc2c(OC3OC(CO)C(O)C(O)C3O)c(O)cc(O)c12 (stereo not given) | UniProt:P08684 | 39.8 µM (inconclusive) |
| C/C=C/OC(=O)NC(c1ccccc1)[C@]1(C(C)=O)CCCC1=O (stereo not given in full) | UniProt:P08684 | 0.126 µM (inconclusive) |
| CCN1C(C)=C(C(=O)OC)C(c2ccccc2)N2C(=O)[C@@]3(C(=O)OC)O[C@@]12C1C(=O)CCCC13 (stereo not given in full) | UniProt:P08684 | 3.98 µM (inconclusive) |
| CC(CCC(=O)O)(c1ccc(O)cc1)c1ccc(O)cc1 | UniProt:P08684 | 39.8 µM (inconclusive) |

Here is the next item to consider.
INPUT: Item under review: CC(Oc1ccccc1)C(=O)NC1C(=O)N2C(C(=O)O)C(C)(C)S[C@@H]12 (stereo not given in full) . Reported AC50?
OUTPUT: 0.251 µM (inconclusive)

* * *

- SYSTEM TESTED: DNA dC->dU-editing enzyme APOBEC-3G (Homo sapiens)
- Sequence (Q9HC16 whole entry): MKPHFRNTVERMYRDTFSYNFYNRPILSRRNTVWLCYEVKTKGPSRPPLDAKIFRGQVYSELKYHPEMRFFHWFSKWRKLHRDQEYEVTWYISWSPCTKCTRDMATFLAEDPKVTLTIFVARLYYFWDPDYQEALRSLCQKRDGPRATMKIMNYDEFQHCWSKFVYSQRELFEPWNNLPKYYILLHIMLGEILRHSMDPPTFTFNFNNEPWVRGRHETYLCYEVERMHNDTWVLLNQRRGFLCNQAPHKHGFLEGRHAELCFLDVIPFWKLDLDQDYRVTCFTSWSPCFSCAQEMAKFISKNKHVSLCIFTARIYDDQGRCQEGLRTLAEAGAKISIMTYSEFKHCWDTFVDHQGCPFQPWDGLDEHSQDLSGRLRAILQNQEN
- EXPERIMENT NOTES: Dose Response confirmation of small molecule APOBEC3G DNA Deaminase Inhibitors via a fluorescence-based single-stranded DNA deaminase assay. [Related pubchem assays (depositor defined):AID493012, AID493028]
- Format: functional
The source made the active and inactive calls.
// values below are reported IC50

Solved cases (3 shown):
| MOLECULE | IC50 |
| --- | --- |
| CCOc1cc(C(=S)N2CCOCC2)ccc1O | 42.8 µM (active) |
| Sc1nnc(COc2ccccc2)n1/N=C/c1cccnc1 | 3.71 µM (active) |
| CCN(CC)C(=O)CSc1ncnc2c(-c3cccs3)nsc12 | 17.8 µM (active) |

INPUT: Name the reported IC50 value associated with the molecule C=CCn1c(S)nnc1CSc1nc2ccccc2s1
OUTPUT: 3.29 µM (active)

INPUT: Same question for O=c1c2c([N+](=O)[O-])cc([N+](=O)[O-])cc2sn1Cc1ccccc1 please.
OUTPUT: 4.16 µM (active)

INPUT: Same lookup for O=C(CC1Sc2ncnn2C1=O)Nc1ccc(Br)cc1 (stereo unspecified) , please.
OUTPUT: 55.8 µM (active)

* * *

Overview of recorded EC50 for various compounds
- SYSTEM TESTED: Zinc finger protein mex-5 (Caenorhabditis elegans, UniProt Q9XUB2)
- Sequence (Q9XUB2 whole entry): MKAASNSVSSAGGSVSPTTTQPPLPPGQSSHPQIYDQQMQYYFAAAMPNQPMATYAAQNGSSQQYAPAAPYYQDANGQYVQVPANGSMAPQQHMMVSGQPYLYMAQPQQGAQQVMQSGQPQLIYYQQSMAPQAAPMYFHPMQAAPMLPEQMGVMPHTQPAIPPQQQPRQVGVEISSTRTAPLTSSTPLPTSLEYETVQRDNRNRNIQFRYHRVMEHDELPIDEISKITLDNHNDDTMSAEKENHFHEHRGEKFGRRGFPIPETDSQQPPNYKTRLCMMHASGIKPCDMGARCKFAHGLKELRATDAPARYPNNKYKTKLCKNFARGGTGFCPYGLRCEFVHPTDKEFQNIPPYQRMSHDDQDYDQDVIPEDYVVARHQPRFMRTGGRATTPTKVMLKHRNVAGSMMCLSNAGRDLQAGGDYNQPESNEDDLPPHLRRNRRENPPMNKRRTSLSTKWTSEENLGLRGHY
- EXPERIMENT NOTES: potency of MEX-5 RNA-binding blockers – biochemical, C. elegans, fluorescence polarization, dose response (AID 1960)
Activity calls are given as the source filed them.

Would you please look over these solved cases?
| COMPOUND | SYSTEM TESTED | RESULT |
| --- | --- | --- |
| Oc1ccc(C2C[C@H]3CC[C@@H]2C3)cc1O (stereo not given in full) | Zinc finger protein mex-5 (Caenorhabditis elegans, UniProt Q9XUB2) | 20.6 µM (inconclusive) |
| COc1cc(C2C(C#N)=C(N)OC3=C2C(=O)CC(C)(C)C3)cc([N+](=O)[O-])c1O (stereo not given) | Zinc finger protein mex-5 (Caenorhabditis elegans, UniProt Q9XUB2) | > 300 µM (not active) |
| O=C(O)c1cccc(-n2cccc2/C=C2/NC(=O)N(Cc3ccccc3F)C2=O)c1 | Zinc finger protein mex-5 (Caenorhabditis elegans, UniProt Q9XUB2) | > 300 µM (not active) |
| COc1ccc(OC)c(C2=C/C(=C/c3ccccn3)C(=O)O2)c1 | Zinc finger protein mex-5 (Caenorhabditis elegans, UniProt Q9XUB2) | 45.8 µM (active) |

Consider the additional compound presented here.
INPUT: What is its EC50 for Zinc finger protein mex-5 (Caenorhabditis elegans, UniProt Q9XUB2)? Entry: Cc1ccc2ccc(C3C(=O)c4ccccc4C3=O)nc2c1
OUTPUT: 48.4 µM (active)
